Target: furin, P09958;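 also: purified furin at 1:10 enzyme:substrate in 50 mM HEPES pH 7.5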
Sequence (P09958 whole entry): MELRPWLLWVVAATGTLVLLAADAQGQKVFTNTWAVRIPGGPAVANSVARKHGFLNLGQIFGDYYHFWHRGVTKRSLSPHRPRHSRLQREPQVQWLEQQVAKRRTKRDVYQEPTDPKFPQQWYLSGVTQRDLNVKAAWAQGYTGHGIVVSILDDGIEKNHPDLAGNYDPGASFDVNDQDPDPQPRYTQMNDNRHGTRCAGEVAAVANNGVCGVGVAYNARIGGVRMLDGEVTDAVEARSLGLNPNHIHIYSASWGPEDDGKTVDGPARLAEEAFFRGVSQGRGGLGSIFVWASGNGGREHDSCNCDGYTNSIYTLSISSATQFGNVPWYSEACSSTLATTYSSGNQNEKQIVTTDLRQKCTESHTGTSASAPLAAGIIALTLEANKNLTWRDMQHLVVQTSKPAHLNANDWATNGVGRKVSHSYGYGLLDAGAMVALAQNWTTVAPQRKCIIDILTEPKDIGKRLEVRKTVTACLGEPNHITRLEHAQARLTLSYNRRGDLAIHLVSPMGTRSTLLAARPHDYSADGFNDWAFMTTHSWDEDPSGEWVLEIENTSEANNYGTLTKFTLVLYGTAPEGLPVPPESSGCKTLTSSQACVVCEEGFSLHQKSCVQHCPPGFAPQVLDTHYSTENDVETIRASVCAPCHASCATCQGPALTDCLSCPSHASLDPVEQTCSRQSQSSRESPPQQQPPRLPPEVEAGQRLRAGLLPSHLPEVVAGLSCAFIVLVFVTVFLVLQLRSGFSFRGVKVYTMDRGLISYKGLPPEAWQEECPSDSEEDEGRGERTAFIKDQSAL
Experiment: furin cleavage Z-score vs untreated control; higher = more cleavage, active = 3.5 or more, inactive = 1 or less, 8 variable residues between constant flanks
Details: 30 min
The other results are listed elsewhere or left out. No count for the full screen is at hand.
Outcome codes: active, inactive

In [3]: df
Out[3]:
                    biosequence  class_assignment
0    CACFRKHPDAAGNASASA [HC453]          inactive
1  CACFRRSKRAAGNASASA [FS-1514]            active
2  CARSSRSNGRAGNASASA [FS-3097]          inactive
3  CACVRRSPCAAGNASASA [FS-2118]          inactive
4   CARWRRSKRAAGNASASA [FS-959]            active
5   CADMEVVTSTAGNASASA [HC2286]          inactive

Hello, the source for this data is the supplement of paper PMC3545927, in case you need it.
